# System: MS2 coat protein
# Procedure details: apparent KD of MS2 coat protein; designed switch direction (-1 OFF switch, 1 ON switch): -1; higher = weaker reporter binding
# Cond: input ligand: none
Parameter: apparent KD of MS2 coat protein (nM)
Report only the number, with the unit nM understood.

AGUAGUUCAGGAUAUGAUGUUAAAUACAUGAGGAUCACCCAUGUAGAUCCUGAAUUUACAUCAGAAGGGAAUAACU [JR_Ex5_Sub082] (Eterna round: R97, puzzle: Exclusion 5); 25.5
CCGACAUGAGGAUAUCCAUCUGGAUCAGACUAGAUCCUGAUGGAGAAGGUACAUGAGGAUCACCCAUGUUACGG [Eli 4x 4.46] (Eterna round: R97, puzzle: Exclusion 4); 330
UAUUAGUAAGGAUAUCUCGUCAUGGACGUGAGUCCAUGACGAGAGAAGGUACAUGAGGAUCACCCAUGUCCAUU [Mod of Fisker 20 - Jieux - Exclusion 4] (Eterna round: R97, puzzle: Exclusion 4); 14.1
CCGGGCCCGGGAGGAUAUACAUGAGGAUCACCCAUGUGGGCCCGGGCCCGCGGGCCCGGGCCCGUGUAGAAGGCCCGGGCCCGG [-64.8, -63.2 kcal, A 14%] (Eterna round: R96, puzzle: Exclusion NG 2); 19.9

Shift focus to the following entry.
The sequence identified as ACAUGUAAUGCAGGAUAUCGGACACAUGAGGAUCACCCAUGUGACCAGAGGUAUUGCUAAGAGUCUGAGAAGGGUAUGUACAUG [Ex NG2 #50] (Eterna round: R96, puzzle: Exclusion NG 2) registered its apparent KD of MS2 coat protein at 19.1

###

# System: MS2 coat protein
# Procedure details: apparent KD of MS2 coat protein; designed switch direction (-1 OFF switch, 1 ON switch): 1; higher = weaker reporter binding
# Cond: input ligand: microRNA oligo, concentration not stated
apparent KD of MS2 coat protein reference
Please answer in the form of a number followed by its unit of measurement.

Sample records with apparent KD of MS2 coat protein:
GCUAGGAUAUGACGAGGAUCACCCGUUAGAAGGAGCGAAGGCUAGGAUAUGACGAGGAUCACCCGUUAGAAGGAGCUGUACUCU [pwkr ssNG3 DX 2xF5 +2xFMN.10] (Eterna round: R96, puzzle: Same State NG 3); 0.0649 µM
GCGGAGAGGUAAGGAUAUCCAUGGCAUAGACAUGAGGAUCACCCAUGUAGGAGACGAAUUAGGAGGGAGAAGGUACCGGGACGC [AK SSNG2-V2-19.1] (Eterna round: R96, puzzle: Same State NG 2); 0.0812 µM

The sequence identified as ACCCGCGGGCCACAUGAGGAUCACCCAUGUGACCGGUGAUCCAAGGAUAUGUGUAGGGUAGAUGCACAGAAGGUGGCCAAAACU [Ainriqu] (Eterna round: R96, puzzle: Same State NG 3) registered its apparent KD of MS2 coat protein at 0.0148 µM

###

# Test system: MS2 coat protein
# Procedure details: apparent KD of MS2 coat protein; higher = weaker reporter binding
# Cond: Eterna round: R107; input ligand: arginine 13.2 mM
# binarize apparent KD of MS2 coat protein: threshold 40 nM inclusive, high side condition met, low side condition not met

Solved entries (count: 5):
AAAUAAAUACAUGAGGAUCACCCAUGUGAAGGAGCGCGCGUUAGCGCAGGUAGGUCGCACAUGAACUCCAAAGUGCGAAAGCACA [MAT - Exclusion Arginine A - Mod of Eli - D9]; condition not met
ACAUGAGGAUCACCCAUGUACAUGAGGGAAGGAGCGGUACAUGUGCCAGGUAGGUCGCCCAACAGCAUCAGCCAUGUACAACAGG [zqwmullin]; condition met
UAUCCACAUGAGGAUCACCCAUGUAGGGAAGGAGCGGUGGUUGCACCAGGUAGGUCGCCUUGCUGAGGAUAACCGGUGGAAUCGU [Exclusion - Arginine A (Freestyle 28)]; condition not met
UACCGAUGAAGAAGGAGCGAUUUUAUGUUACAUGAGGAUCACCCAUGUGGACUAGGUGAAGAUCAGGUAGGUCGCUUCAUCGGUA [SSAB NP+V+V2 #20]; condition not met
ACGCUGAUUGAUUACAAUCAGCGAAAAGAUACCAGUGGGUAAUCCCACCCUUGGCAGCUUAAAUAUGAGGAUCACCCAUAUGGUA [TheoAS 18 #MS2Right #BothOrNeither #AlternativeMS2]; condition met

**Q:** Reported apparent KD of MS2 coat protein at or above 40 nM? GAGCUGAUGUAGAGAAUAAAUAUAAGAGAUACCAGUACAGAAAUGUACCCUUGGCAGCUCAACUUUACAUGAGGAUCACCCAUGU [Ex Theophylline A 18]
**A:** condition not met

###

# Test system: MS2 coat protein
# Procedure details: apparent KD of MS2 coat protein; designed switch direction (-1 OFF switch, 1 ON switch): -1; higher = weaker reporter binding
# Cond: input ligand: FMN 200 uM
apparent KD of MS2 coat protein reference
Report only the number, with the unit nM understood.

Sample records with apparent KD of MS2 coat protein:
UAAUGUAUAUAGGAUAUCUAGCUGGUAACAGCUAGAGAAGGAUGUACAUGAGGAUCACCCAUGUAAAUCGAUCA [Ex6/11-A2] (Eterna round: R97, puzzle: Exclusion 6); 83.3
AGCAUGUGAGGAUAUGUACCUGAGUGCUUUGCGCUCAGGAAACAGAAGGCACAUGAGGAUCACCCAUGUGAAAA [jl-ex4-4.45 ViennaUCT mod] (Eterna round: R97, puzzle: Exclusion 4); 68.7
CUAGUAUAUCAGGAUAUGAUAGCUUAUAGCAUAUCAGAAGGGAUUACAUGAGGAUCACCCAUGUGAAGGGAUGA [eternacac ex6r4 sub17] (Eterna round: R97, puzzle: Exclusion 6); 331
GGUACUCAAAGAGUACCAAUACGAACAUGAGGAUCACCCAUGUAGGAUAUGCUACUCAAAGAGUAGCAGAAGGAUAUGAACCCU [Far Half Aptamer v8] (Eterna round: R96, puzzle: Exclusion NG 3); 33.1
AAACCCAGAGGAUAUGCUGACUCCGACAUGAGGAUCACCCAUGUAGCGACUCUUCAUGCAGCAGAAGGUUGAUUUU [Eternabot (L1) Solution 66] (Eterna round: R97, puzzle: Exclusion 5); 235

Shift focus to the following entry.
Simply: UAUUAGCAAGCAAGAUCCCACAUGAGGAUCACCCAUGUGCUCGUCUUAAUUCCAGAAUUACUGGGCUCUCGUCUUAU [JR_STOV1_Sub090] (Eterna round: R97, puzzle: Sensor, turn-off variant 1) , MS2 coat protein, apparent KD of MS2 coat protein = 41

###

# System: MS2 coat protein
# Procedure details: apparent KD of MS2 coat protein; designed switch direction (-1 OFF switch, 1 ON switch): -1; higher = weaker reporter binding
# Cond: input ligand: FMN 200 uM
# binarize apparent KD of MS2 coat protein: threshold 200 nM inclusive, high side Criterion met, low side Criterion not met

GGGCUGUCAGGAUAUGGGCCCGGGCCCGAAAGGGUUUGGGCCCAGAAGGGACAUGAGGAUCACCCAUGUGGCCC [-43.8, -42.8 kcal, A 20%, 5b-0] (Eterna round: R97, puzzle: Exclusion 4); Criterion not met

Okay, now this sequence:
**Q:** Reported apparent KD of MS2 coat protein at or above 200 nM? ACAUGAGGAUCACCCAUGUCCGGCUGGUCCGUUUCGGCUGUCGAGGAUAUAGUUCGGUGUCCGCGCUAGAAGGCGGGAGCCGGC [Aenatbe mod 62] (Eterna round: R96, puzzle: Exclusion NG 3)
**A:** Criterion met

###

# Test system: K4 kissing-loop RNA reporter;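 also: bound reporter read as fluorescence of individual clusters on recovered sequencing chips by microscopy, with normalized cluster intensities fitted with a binding model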
# Procedure details: apparent KD of K4 kissing-loop reporter; higher = weaker reporter binding
# Cond: Eterna round: R107; input ligand: arginine 13.2 mM
Parameter: apparent KD of K4 kissing-loop reporter (nM)
Report only the number, with the unit nM understood.

GGCGGCCGCGCGAAAGCGCGGCCGGCCGAUACCAGCGCGCCGGCGCGCCCUUGGCAGCGGCGCCGAGUGAUGUUCGGCCUGCCGU [#2 Same State - Theophylline A Attempt #12 (HarryS)]; 101

The sequence identified as GCAUCCUAGUCGGCCGCCACUGACAUGAGUGAUGUUCAUGUUCGUCAGUGAUGUUGACGUUGUUACAGGACCGGGACUAGGAUGC [KL-SSTryp-B8 Brourdwalk4 #Double KL] registered its apparent KD of K4 kissing-loop reporter at 143

The sequence identified as GUAUCGCUAGGAGGAUAUUUCAAUUUGACUCUUUGAGUUAUUACGGAGUGAUGUUCCGAUUUACGGAAAGAAGGCCUAGUGAUAC [FMN B 12] registered its apparent KD of K4 kissing-loop reporter at 170

The sequence identified as GGUGAUGAGCACGAUACCAGCCUCGGAGCCAGUGAUGUUGGCCCAGUUUAGAAUAAGACAGGCCCUUGGCAGCGUGACGAUGGCU [Inorusre] registered its apparent KD of K4 kissing-loop reporter at 980

The sequence identified as AGGAUAUAGUGAUGUUAUAUAAGAAGAAAACGAGGACCGGUACGGCCGCCACUCGAAGCGGCUACUAAGAGGGAAAGAAGAGGAA [ExTryptoA.A] registered its apparent KD of K4 kissing-loop reporter at 181

The sequence identified as AGGGACUCUUCGGAGUCCCGGUCAAGGGAUACCAGUGAUGUUGGUCACCCUUGGCAGCCCAGAAACCAAGCCACCAAAGGUGGCA [Omei KL Theo A Exc A v3] registered its apparent KD of K4 kissing-loop reporter at 97.9
